# tgt: human, KCNT1 (Homo sapiens (Human), UniProt Q5JUK3)
# Sequence (Q5JUK3 whole entry): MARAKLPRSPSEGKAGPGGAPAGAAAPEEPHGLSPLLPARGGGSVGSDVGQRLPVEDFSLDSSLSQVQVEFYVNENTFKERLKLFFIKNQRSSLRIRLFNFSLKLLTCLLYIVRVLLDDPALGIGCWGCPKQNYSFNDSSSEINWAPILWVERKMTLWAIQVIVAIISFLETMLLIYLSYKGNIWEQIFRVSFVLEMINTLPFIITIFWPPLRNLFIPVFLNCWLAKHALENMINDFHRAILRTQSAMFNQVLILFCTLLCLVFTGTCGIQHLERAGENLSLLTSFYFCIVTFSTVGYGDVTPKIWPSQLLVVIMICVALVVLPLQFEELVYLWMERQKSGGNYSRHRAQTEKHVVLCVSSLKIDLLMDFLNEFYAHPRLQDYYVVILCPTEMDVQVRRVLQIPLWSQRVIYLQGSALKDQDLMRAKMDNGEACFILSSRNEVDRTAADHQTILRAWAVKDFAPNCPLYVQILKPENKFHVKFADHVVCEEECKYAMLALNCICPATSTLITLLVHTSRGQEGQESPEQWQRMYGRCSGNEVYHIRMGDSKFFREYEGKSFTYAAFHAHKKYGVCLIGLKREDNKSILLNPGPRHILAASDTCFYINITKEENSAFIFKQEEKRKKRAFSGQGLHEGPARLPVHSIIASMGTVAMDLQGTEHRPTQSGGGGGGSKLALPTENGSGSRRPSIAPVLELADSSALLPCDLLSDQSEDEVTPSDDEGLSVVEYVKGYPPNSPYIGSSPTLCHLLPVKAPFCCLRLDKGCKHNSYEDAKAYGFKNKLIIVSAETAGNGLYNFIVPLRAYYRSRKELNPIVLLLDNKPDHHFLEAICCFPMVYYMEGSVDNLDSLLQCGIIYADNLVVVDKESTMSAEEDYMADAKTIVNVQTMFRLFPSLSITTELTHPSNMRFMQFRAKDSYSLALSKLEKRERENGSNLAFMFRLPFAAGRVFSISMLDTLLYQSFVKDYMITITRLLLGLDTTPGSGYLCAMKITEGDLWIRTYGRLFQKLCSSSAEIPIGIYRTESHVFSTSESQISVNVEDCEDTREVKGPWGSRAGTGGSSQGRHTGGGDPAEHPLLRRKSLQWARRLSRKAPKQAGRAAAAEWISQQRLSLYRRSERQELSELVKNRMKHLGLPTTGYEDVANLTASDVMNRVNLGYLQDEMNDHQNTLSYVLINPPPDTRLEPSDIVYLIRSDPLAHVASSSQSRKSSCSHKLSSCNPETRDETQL
# assay.name: FLIPR Tl/K Flux Assay
# condition.label: HEK293 cells stably expressing human KCNT1; Tl+ flux stimulated with EC80 of agonist Loxapine
pIC50: −log10 of the molar value.
Attribute: pIC50

Examples from the recorded data:
O=C(N[C@H]1CCCn2nc(-c3ccnc(C(F)(F)F)c3)cc21)C12CC(C(F)(F)F)(C1)C2 [Compound I-501a]	> 6.60
COc1cc(C(=O)NC2CCCc3nn(-c4ccnc(C(F)(F)F)c4)cc32)n(C)n1 (racemic)	< 6.00
Cc1cc(C(=O)N[C@@H]2CCc3nn(-c4ccnc(C(F)(F)F)c4)cc32)cc(C(F)(F)F)c1 [Compound I-373b]	> 6.60

Okay, now this molecule:
Could you share which pIC50 value was measured for Cn1nc(C(F)(F)F)cc1C(=O)N[C@@H]1CCn2nc(-c3ccnc(C(F)(F)F)c3)cc21 [Compound I-123b] ?
6.30 to 6.60
